Catalogue of pEC50 values
System: phospho-Tau (Ser199) in SH-SY5Y cells
Test: Tau phosphorylation assay (phospho-Tau Ser199 ELISA)
Assay type: cell-based, human
Conditions: Homo sapiens, SH-SY5Y, read-out: p-Tau Inhibition ELISA EC50 SH-SY5Y
pEC50: −log10 of the molar value.

MOLECULE	TARGET_OR_SYSTEM	pEC50
CSc1ccccc1C1C2=C(CC(C)(C)CC2=O)Nc2n[nH]c(C)c21 (stereo not shown)	phospho-Tau (Ser199) in SH-SY5Y cells	5.55
COC(=O)c1[nH]nc2c1C(C)(c1ccccc1)C1=C(CC(C)(C)CC1=O)N2 (stereo not shown)	phospho-Tau (Ser199) in SH-SY5Y cells	5.35
Cc1[nH]nc2c1C(C)(c1cccc(C#N)c1)C1=C(CC(C)(C)CC1=O)N2 (racemic)	phospho-Tau (Ser199) in SH-SY5Y cells	5.20
Cc1[nH]nc2c1[C@H](c1ccccc1C(F)(F)F)C1=C(CC(C)(C)CC1=O)N2 (stereo in doubt)	phospho-Tau (Ser199) in SH-SY5Y cells	5.74
Cc1[nH]nc2c1C(c1cccc(C#N)c1)C1=C(CC(C)(C)CC1=O)N2 (stereo not shown)	phospho-Tau (Ser199) in SH-SY5Y cells	5.60
CC1(C)CC(=O)C2=C(C1)Nc1n[nH]c(C3CC3)c1C2(C)c1ccccc1 (racemic)	phospho-Tau (Ser199) in SH-SY5Y cells	5.32
Cc1[nH]nc2c1C(c1ccccc1)(C(F)(F)F)C1=C(CC(C)(C)CC1=O)N2 (stereo not shown)	phospho-Tau (Ser199) in SH-SY5Y cells	4.69
Cc1[nH]nc2c1C(c1ccccc1C(F)(F)F)C1=C(CC(C)(C)CC1=O)N2 (racemic)	phospho-Tau (Ser199) in SH-SY5Y cells	5.37
CCC1(c2ccccc2)C2=C(CC(C)(C)CC2=O)Nc2n[nH]c(C)c21 (racemic)	phospho-Tau (Ser199) in SH-SY5Y cells	4.65
